src = patent US11643391B2

# assay_text: physchem
# experimental_parameters: buffer, pH 6.5
attribute_measured: half-life
Note: state the figure and append the unit.

CC(OC(=O)C(C)C)OC(=O)n1cc(CCN(C)C)c2ccccc21 (centres unmarked) | 331 h

Would you kindly look at the next entry?
Quick one: half-life for CC(OC(=O)n1cc(CCN(C)C)c2ccccc21)OC(=O)C(C)(C)C (racemic) ?
15.4 h

* * *

# assay_text: Stability in SGF without pepsin
# Assay type: physicochemical
# experimental_parameters: Table 8, 120 min
attribute_measured: Remaining Percentage (%)
Numbers only, in %.

CC(OC(=O)C(C)C)OC(=O)n1cc(CCN(C)C)c2ccccc21 (stereo not shown) [VLS-03-10] | 98.41
CC[C@H]1OC(=O)[C@H](C)[C@@H](O[C@H]2C[C@@](C)(OC)[C@@H](O)[C@H](C)O2)[C@H](C)[C@@H](O[C@@H]2O[C@H](C)C[C@H](N(C)C)[C@H]2O)[C@](C)(O)C[C@@H](C)C(=O)[C@H](C)[C@@H](O)[C@]1(C)O [Erythromycin, reference compound] | 8.27
CCCCC(=O)Oc1cccc2ccn(CCN(C)C)c12 [VLS-03-1] | 104.22

Alright, here's another compound for you.
Suppose we examine the compound CC(OC(=O)n1cc(CCN(C)C)c2ccccc21)OC(=O)C(C)(C)C (racemic) [VLS-03-15] ; what Remaining Percentage value has been reported?
105.28
